Molecular target: HLA-B*08 (human)
Experiment: UV peptide exchange ELISA
Provide the reported peptide exchange yield of each item.

Any idea what its peptide exchange yield is? The binder is LVKVKVLL
> 75%

Next: FNKRKPLSL
50 to 75%

Next: DAIQRKYSC
50 to 75%

Next: MPMQDIKM
> 75%

Next: ILLPRTVSL
> 75%

Next: LPFPKFTV
> 75%

Next: EAAIRSVEL
> 75%
